# Tested on: K562
# assay info: NCI tumour cell line growth inhibition, 48 h
The source made the active and inactive calls. No stated cut-off is given here; in the data, active = GI50 up to about 1.1 µM and inactive = higher.
Catalogue of molecules with associated GI50

Guide cases for GI50, answers given:
molecule	recorded result
[O-][S+]1c2ccccc2N=C(c2cccs2)CC1c1ccccc1O (centres undefined)	> 100 µM (inactive)
COC(=O)[C@@H]1[C@H](OC(C)=O)CCC2[C@@]3(C[C@@H](c4ccoc4)O[C@@H]3OC)[C@H](C)CC[C@]21C(=O)OC (some centres undefined)	> 25 µM (inactive)
CCOC(=O)Nc1nc(-c2ccccc2)c(C)s1	18.3 µM (inactive)
CN(C)/C=N/n1c2ccccc2c2ccccc21	> 100 µM (inactive)
C[Si](C)(C)C1(Sc2ccccc2)SCCCS1	31.1 µM (inactive)
O=c1cc(N2CCN(c3cc(=O)n4ccccc4n3)CC2)oc2ccccc12	47.1 µM (inactive)

(Q) Provide K562 GI50 reading for N=C1/C(=C/c2ccco2)C(=O)N=C2SC=NN12 .
(A) > 100 µM (inactive)

(Q) Look up K562 data: GI50 of CCO[C@H]1C[C@@H](c2ccccc2)[C@]2(C)C[C@H](C(=O)OC)ON2O1 , then report it.
(A) > 100 µM (inactive)

(Q) Report GI50 from K562 testing of CCNCCNC(=O)c1ccc(Br)cc1
(A) > 100 µM (inactive)

(Q) Please tell me the measured GI50 for CCCC(=O)Nc1cc(/C=C/C(=O)N2CC(CCl)c3c2cc(O)c2[nH]cc(C)c32)n(C)c1 (centres undefined) ; system: K562.
(A) 3.79e-05 µM (active)

(Q) Please look at NC(=O)NOCC1NC(=O)NC1=O (centres undefined) and tell me its recorded GI50 on K562.
(A) > 100 µM (inactive)

(Q) State the measured GI50 (K562) of CN1C(=O)N/C(=C\c2ccc(S(=O)(=O)NN)cc2)C1=O
(A) > 100 µM (inactive)

(Q) Return reported GI50 for target or system K562, item c1ccc2/c3[nH]/c(c2c1)=N\c1ccc(cc1)-c1nc2ccc(cc2o1)/N=c1/[nH]/c(c2ccccc12)=N/c1ccc2nc(oc2c1)-c1ccc(cc1)\N=3 .
(A) 15.8 µM (inactive)

(Q) For K562, give GI50 of the listed molecule: Cc1cc(C)c(P2C(=C(O[Si](C(C)C)(C(C)C)C(C)C)C(C)(C)C)C2(c2ccccc2)c2ccccc2)c(C)c1 (centres undefined)
(A) 67 µM (inactive)

---

GI50 by entry:
# System: CAKI-1
# assay info: NCI tumour cell line growth inhibition, 48 h
Active and inactive are the calls of the source. Cut-off read from the data, not from the text of the source: active = GI50 up to about 1.1 µM and inactive = higher.

Some compounds with known GI50 results, for comparison:
compound	GI50
CCCCCCCCCCCCCCCCNc1nc(=O)n(C2CC(O)C(CO)O2)cc1F (stereo not drawn)	2.1 µM (inactive)
COc1cccc2c1N[S@](=O)S2	> 100 µM (inactive)
Cn1c(N)nc(=O)c2c1N(C1OC(CO)C(O)C1O)CN2Cc1ccccc1 (stereo not drawn)	> 100 µM (inactive)
Oc1c(Br)cc(/C=C/c2cccc(/C=C/c3cc(Br)c(O)c(Br)c3)n2)cc1Br	11.5 µM (inactive)
[O-][n+]1onc2c3nn(-c4ccccc4)nc3ccc21	> 100 µM (inactive)
O=C(CCN1CCCCC1CO)Nc1ccc2c(c1)C(=O)c1ccc(NC(=O)CCN3CCCCC3CO)cc1C2=O (stereo not drawn)	13.5 µM (inactive)
Nc1nc(SCc2ccccc2Cl)c2ncn(C3OC(CO)C(O)C3O)c2n1 (stereo not drawn)	> 100 µM (inactive)

Now for a further compound.
(Q) Name the recorded GI50 of the compound listed here: CSc1nc2ccccc2c(=O)n1-c1cccc(C)c1
(A) 95.1 µM (inactive)

---

# Test system: U-251
# assay info: NCI tumour cell line growth inhibition, 48 h
Calls of active or inactive are those of the source. Rule as the data show it: active = GI50 up to about 1.1 µM and inactive = higher.
Overview of reported GI50 across a group of compounds:

Please review the entries below; each comes with its answer.
compound	GI50
O=C1c2ccccc2C(=O)N1/N=C\c1ccc(Br)cc1	> 100 µM (inactive)
Cc1c(C)c(S(=O)(=O)N(CCCCCN)OCCCN)c(C)c2c1OC(C)(C)CC2	5.64 µM (inactive)
Nc1nc(-c2ccccc2)c(CC(=O)O)s1	> 100 µM (inactive)
c1ccc2/c3[nH]/c(c2c1)=N\c1ccc(cc1)-c1nc2ccc(cc2o1)/N=c1/[nH]/c(c2ccccc12)=N/c1ccc2nc(oc2c1)-c1ccc(cc1)\N=3	20.1 µM (inactive)
O=C1OC(C2Cc3ccc4c(c3C2=O)CCC4)c2ccccc21 (stereo unspecified)	38.8 µM (inactive)

(Q) Give me measured GI50, please, for this compound: CC1=NN(c2ccccc2)C(=O)/C1=C\c1c(C)[nH]n(-c2ccccc2)c1=O
(A) > 100 µM (inactive)

---

# System: SK-OV-3
# assay info: NCI tumour cell line growth inhibition, 48 h
Calls of active or inactive are those of the source. Rule as the data show it: active = GI50 up to about 1.1 µM and inactive = higher.
GI50: recorded values

Example cases with answers are listed next.
molecule	GI50
O=C1c2ccccc2-c2c1c1ccccc1c(=O)n2Cc1ccco1	> 100 µM (inactive)
CC/C(Cl)=N\OC(=O)Nc1ccc(F)c(Cl)c1	18.5 µM (inactive)

# next molecule below
(Q) State, in one line, measured GI50 of COC(=O)[C@@H]1[C@H](OC(C)=O)CCC2[C@@]3(C[C@@H](c4ccoc4)O[C@@H]3OC)[C@H](C)CC[C@]21C(=O)OC (stereo partly drawn)
(A) > 25 µM (inactive)

---

# Test system: COLO 205
# assay info: NCI tumour cell line growth inhibition, 48 h
Activity calls are given as the source filed them. Rule as the data show it: active = GI50 up to about 1.1 µM and inactive = higher.
Response enum: active, inactive

Reference set (6 entries):
compound	tested on	cat
COc1ccc(/C(Cl)=C(\C=O)c2ccc([N+](=O)[O-])cc2)cc1OC	COLO 205	inactive
CC(=O)Oc1c(C)n(CCCl)ccc1=O	COLO 205	inactive
Cc1nc2c(=O)[nH]c(=O)nc-2n(CCO)c1C	COLO 205	inactive
C=C(c1ccc2[nH]c(NC(=O)OC)nc2c1)c1cccs1	COLO 205	active
CN(C)/C=N/S(=O)(=O)c1nn2c(C=O)c(-c3ccc(Cl)cc3)nc2s1	COLO 205	inactive
CC(=O)NC1C(OCc2ccccc2)OC(CO)C(O)C1OCC(=O)N1CCCC1C(=O)NC(CCC(=O)NCCCCCNc1c2ccccc2nc2cccc([N+](=O)[O-])c12)C(N)=O (stereo unspecified)	COLO 205	active

(Q) What outcome does the record of this test show for CCCCCc1cc(OC(=O)c2c(O)cc(OC)cc2CCCCC)cc(O)c1C(=O)O ?
(A) inactive

(Q) Assay result, entry CC(C)(Oc1ccc(Cl)cc1)C(=O)N(C(=O)N1CCCCC1)c1ccccc1 — outcome?
(A) inactive

(Q) What did the test return for CC(=O)Nc1ccc2oc(=O)c3ccccc3c2c1 ?
(A) inactive

(Q) Answer briefly: the call reported for COc1cc2c(c3c1C=CCO3)C(=O)c1ccccc1C2=O in this assay.
(A) inactive

(Q) So what was the verdict on Cc1cccc(C(C)(C)C)c1NC(=O)CC1Sc2ccccc2NC1=O (stereo unspecified) in this test?
(A) inactive

---

# Test system: LOX IMVI
# assay info: NCI tumour cell line growth inhibition, 48 h
Activity calls are given as the source filed them. No stated cut-off is given here; in the data, active = GI50 up to about 1.1 µM and inactive = higher.
reported metric: GI50

compound	tested on	GI50
CC(=O)Nc1nnc(S(=O)(=O)NC(=S)Nc2ccc(Cl)cc2)s1	LOX IMVI	> 100 µM (inactive)
Nc1ccc(/N=N\c2ccc(-c3ccc(O)cc3)cc2)c2ccc(S(=O)(=O)O)cc12	LOX IMVI	> 100 µM (inactive)
COc1cc(S(=O)(=O)Nc2nc(-c3ccc(N4C(=O)C(CC(=O)O)SC4c4ccccc4O)cc3)cs2)ccc1Cl (stereo not drawn)	LOX IMVI	> 100 µM (inactive)
Cc1ccc2c(c1)nc1n2C(c2c(F)cccc2F)SC1 (stereo not drawn)	LOX IMVI	33.5 µM (inactive)
CN1C(=O)N/C(=C\c2ccc(S(=O)(=O)NN)cc2)C1=O	LOX IMVI	> 100 µM (inactive)
O=C1C2SC34c5c2c2ccccc2n5CCC3CCCN14 (stereo not drawn)	LOX IMVI	> 100 µM (inactive)
O=C(/N=C1\SCCN1C(=O)C(C(F)(F)F)C(F)(F)F)C(C(F)(F)F)C(F)(F)F	LOX IMVI	> 100 µM (inactive)
CN1N=C(c2ccncc2)OC1c1ccc(Cl)c(Cl)c1 (stereo not drawn)	LOX IMVI	> 100 µM (inactive)

(Q) Supply reported GI50 belonging to this compound: CN(C)c1ccc(C(Cc2ccccc2)C2NC(=S)NC2=O)cc1 (stereo not drawn)
(A) > 100 µM (inactive)

(Q) Consider the compound COc1cc2c(c3c1C=CCO3)C(=O)c1ccccc1C2=O and give its recorded GI50.
(A) 28.6 µM (inactive)

(Q) State its GI50 for this compound: CC(C)CCn1c(=O)c2c(=O)[nH][nH]c2c2ccccc21
(A) > 100 µM (inactive)

(Q) Output GI50 of CSC1=C(SC)C(=O)c2cn(C)c(=O)cc2C1=O
(A) 1.78 µM (inactive)

(Q) Identify GI50 associated with the compound CCc1nc(N)nc(N)c1-c1ccc(Cc2ccccc2)c([N+](=O)[O-])c1
(A) < 0.01 µM (active)

(Q) Provide only the value of recorded GI50 for COc1cc2c(cc1OC)C(=O)/C(=C/c1ccccc1)CC2
(A) 32.7 µM (inactive)

(Q) Give a short answer stating reported GI50 for CC(C)[C@](O)(C(=O)OCC1CC[N+]2([O-])CC[C@@H](O)C12)[C@H](C)O (stereo partly drawn) .
(A) > 142 µM (inactive)

(Q) Supply measured GI50 of CNc1ccc(C(=O)CC(O)CCC(C)C2OC(=O)CC(O)CC(=O)CC(O)CC(O)CC(O)CC(O)CC3(O)CC(O)C(C(=O)NCCN(C)C)C(CC(OC4OC(C)C(O)C(NC(=O)CN5CCN(C)CC5)C4O)\C=C/C=C\C=C/C=C/C=C/C=C\C=C/C2C)O3)cc1 (stereo not drawn) in your reply.
(A) 2.92 µM (inactive)

(Q) Find the measured GI50 of Cc1ccc2c(c1)C1(C)OC(CC(N)C1O)O2 (stereo not drawn) and report it.
(A) > 100 µM (inactive)

(Q) Annotate the compound CC[C@]12C=CCN3CC[C@@]4(c5ccc(OC)cc5N(C)[C@H]4[C@@](O)(C(=O)OC)[C@@H]1OC(C)=O)[C@@H]32 with its measured GI50.
(A) > 200 µM (inactive)

Data credit: ChEMBL document CHEMBL1201862
